All figures here come from paper PMC11480844.

The reader will find reported ratio to parent values listed item by item below.
B1: H2-Kb / Ed33 (parent complex)
chain 1: SQLAEENSWALSVHEGESVTVNCSYKTSITALQWYRQKSGKGPAQLILIRSNEREKRNGRLRATLDTSSQSSSLSITATRCEDTAVYFCATDHNNAGAKLTFGGGTRLTVRP
chain 2: DAGVTQTPRHEVAEKGQTIILKCEPVSGHNDLFWYRQTKIQGLELLSYFRSKSLMEDGGAFKDRFKAEMLNSSFSTLKIQPTEPKDSAVYLCASSLYTNQAPLFGEGTRLSVL
chain 3: not shown
chain 4: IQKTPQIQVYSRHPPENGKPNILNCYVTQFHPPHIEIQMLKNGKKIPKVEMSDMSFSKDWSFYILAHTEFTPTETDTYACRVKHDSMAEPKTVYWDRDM
chain 5: SIINFEKL

variants of: B1; test: % of reporter cells activated (NFAT-GFP), raw; further: test concentration or dose not given here
measured-attribute: ratio to parent

{"columns": ["variant-label", "measured-attribute", "obs-value"],
 "data": [
  ["chain 5 S1L", "ratio to parent", 0.0492],
  ["chain 5 S1E", "ratio to parent", 1.02],
  ["chain 5 N4I", "ratio to parent", 0.271],
  ["chain 5 F5V", "ratio to parent", 0.917],
  ["chain 5 K7F", "ratio to parent", 0.0757],
  ["chain 5 N4F", "ratio to parent", 0.0234],
  ["chain 5 E6G", "ratio to parent", 0.513],
  ["chain 5 E6T", "ratio to parent", 0.0145],
  ["chain 5 I3P", "ratio to parent", 1.09],
  ["chain 5 L8R", "ratio to parent", 0.873],
  ["chain 5 I2M", "ratio to parent", 1.08],
  ["chain 5 I2S", "ratio to parent", 0.691],
  ["chain 5 F5R", "ratio to parent", 0.982],
  ["chain 5 S1G", "ratio to parent", 0.48],
  ["chain 5 K7C", "ratio to parent", 0.063],
  ["chain 5 S1N", "ratio to parent", 0.173],
  ["chain 5 K7Q", "ratio to parent", 0.0157],
  ["chain 5 I2Y", "ratio to parent", 0.715],
  ["chain 5 S1Q", "ratio to parent", 0.91],
  ["chain 5 I3F", "ratio to parent", 0.0275],
  ["chain 5 I3R", "ratio to parent", 0.581],
  ["chain 5 N4P", "ratio to parent", 0.000438],
  ["chain 5 I2L", "ratio to parent", 1.05],
  ["chain 5 N4T", "ratio to parent", 0.0148],
  ["chain 5 I3C", "ratio to parent", 1.02],
  ["chain 5 L8Y", "ratio to parent", 1.01],
  ["chain 5 I2C", "ratio to parent", 0.918],
  ["chain 5 E6P", "ratio to parent", 0.0303],
  ["chain 5 K7N", "ratio to parent", 0.216],
  ["chain 5 I3M", "ratio to parent", 1.07],
  ["chain 5 I2K", "ratio to parent", 1.01],
  ["chain 5 K7G", "ratio to parent", 0.204],
  ["chain 5 K7I", "ratio to parent", 0.018],
  ["chain 5 L8E", "ratio to parent", 0.8],
  ["chain 5 F5K", "ratio to parent", 0.862],
  ["chain 5 I2P", "ratio to parent", 1.03],
  ["chain 5 F5I", "ratio to parent", 0.655],
  ["chain 5 I3N", "ratio to parent", 0.932],
  ["chain 5 I3D", "ratio to parent", 0.634],
  ["chain 5 K7H", "ratio to parent", 0.0435],
  ["chain 5 E6N", "ratio to parent", 0.00413],
  ["chain 5 L8D", "ratio to parent", 0.731],
  ["chain 5 L8Q", "ratio to parent", 0.9],
  ["chain 5 L8T", "ratio to parent", 0.929],
  ["chain 5 I2F", "ratio to parent", 0.774],
  ["chain 5 L8A", "ratio to parent", 0.913],
  ["chain 5 N4H", "ratio to parent", 0.134],
  ["chain 5 N4Y", "ratio to parent", 0.0163],
  ["chain 5 K7S", "ratio to parent", 0.754],
  ["chain 5 E6Q", "ratio to parent", 0.218],
  ["chain 5 I2H", "ratio to parent", 0.835],
  ["chain 5 E6Y", "ratio to parent", 0.182],
  ["chain 5 I3L", "ratio to parent", 0.984],
  ["chain 5 K7T", "ratio to parent", 0.0585],
  ["chain 5 L8P", "ratio to parent", 0.846],
  ["chain 5 K7L", "ratio to parent", 0.0519],
  ["chain 5 I3V", "ratio to parent", 0.933],
  ["chain 5 S1R", "ratio to parent", 0.392],
  ["chain 5 K7E", "ratio to parent", 0.0117],
  ["chain 5 F5A", "ratio to parent", 1.1],
  ["chain 5 L8K", "ratio to parent", 0.941],
  ["chain 5 I2N", "ratio to parent", 1.01],
  ["chain 5 E6H", "ratio to parent", 0.223],
  ["chain 5 K7P", "ratio to parent", 0.372],
  ["chain 5 S1Y", "ratio to parent", 0.414],
  ["chain 5 I2W", "ratio to parent", 0.738],
  ["chain 5 E6K", "ratio to parent", 0.425],
  ["chain 5 F5G", "ratio to parent", 0.844],
  ["chain 5 I2A", "ratio to parent", 0.885],
  ["chain 5 S1K", "ratio to parent", 0.121],
  ["chain 5 L8H", "ratio to parent", 0.968],
  ["chain 5 L8S", "ratio to parent", 0.84],
  ["chain 5 E6I", "ratio to parent", 0.00689],
  ["chain 5 S1W", "ratio to parent", 0.182],
  ["chain 5 K7D", "ratio to parent", 0.0503],
  ["chain 5 S1V", "ratio to parent", 0.349],
  ["chain 5 F5P", "ratio to parent", 0.988],
  ["chain 5 K7W", "ratio to parent", 0.74]
]}
